assay: P-glycoprotein substrates identified in KB-3-1 adenocarcinoma cell line, qHTS therapeutic library screen (AID 1346986); settings: KB-3-1 parental cells viability, CellTiter-Glo, 72 h; series mostly up to 44.5 µM; also: nearly all actives have a fitted effect of over 60% in size
Results filed as inconclusive are left out. Active and inactive are the calls of the source. Calls follow the shape of the dose curve; as a rule, active = well fitted inhibition curve with a large enough effect; inconclusive = small, poorly fitted or top-dose-only effect; inactive = no such curve, though single readings can be large or run the other way.
// classify into active, inactive

Consider the following illustrative entries.
O=C(O)CCC=CCC[C@@H]1[C@H](N2CCCCC2)[C@@H](O)C[C@@H]1OCc1ccc(-c2ccccc2)cc1	inactive
COC(=O)Nc1ccc(-c2nc(N3CCOCC3)c3cnn(C4CCN(C(=O)OC)CC4)c3n2)cc1	active
N=C1SC(=Cc2ccc(-c3ccc4c(c3)C(=O)NC4=O)o2)C(=O)N1c1ccc(Br)cc1	inactive

Q: What classification did "CCCCn1c(=O)n(Cc2ccccc2F)c(=O)c2[nH]c(Cc3ccc(NC(C)=O)cc3)nc21" end up with in this test?
Result: inactive

Q: Same lookup for "CNC(=O)c1cc(COc2nnc(Nc3ccc(Cl)cc3)c3ccoc23)ccn1" , please.
Result: inactive

Q: Another compound: COc1cccc(OC)c1-c1cc(C(=O)NC2(C(=O)O)C3CC4CC(C3)CC2C4)nn1-c1ccnc2cc(Cl)ccc12 (centres undefined)
Result: inactive

Q: And "COc1cc2ncnc(Nc3cc(Br)c(O)c(Br)c3)c2cc1OC" ?
Result: inactive

Q: // same read-out, input: "CN(C)c1nc(Cc2ccc(NC(=O)c3ccc(C(F)(F)F)cc3)cc2)nc(N(C)C)c1CC(=O)O"
Result: inactive

Q: Next: "COc1ccc(Cn2ccc3ccc(C(=O)NO)cc32)cc1"
Result: inactive
